The measurements presented in this section are drawn from patent US20150045540A1.

- study system: T1, Placenta Growth Factor (PlGF), human (human, UniProt P49763 21-149)
- T1 chain: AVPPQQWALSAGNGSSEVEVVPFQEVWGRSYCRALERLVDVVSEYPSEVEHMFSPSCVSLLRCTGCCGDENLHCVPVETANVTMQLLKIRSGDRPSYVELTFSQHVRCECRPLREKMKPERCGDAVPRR
- assay info: ELISA

binder	unit annotation	EC50
HC 8/SLC 3 (antibody) chain 1: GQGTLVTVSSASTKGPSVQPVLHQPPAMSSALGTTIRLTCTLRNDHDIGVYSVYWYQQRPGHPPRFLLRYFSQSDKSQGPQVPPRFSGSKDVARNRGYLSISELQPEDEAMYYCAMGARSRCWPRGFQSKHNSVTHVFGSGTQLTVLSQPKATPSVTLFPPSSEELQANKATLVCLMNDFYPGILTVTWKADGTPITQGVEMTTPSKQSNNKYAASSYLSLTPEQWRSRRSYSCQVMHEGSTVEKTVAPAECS chain 2: MSWAPVLLMLFVYCTGCGPQPVLHQPPAMSSALGTTIRLTCTLRNDHDIGVYSVYWYQQRPGHPPRFLLRYFSQSDKSQGPQVPPRFSGSKDVARNRGYLSISVTHVFGSGTQLTVLSQPQVQLVQ	nM	0.196
HC 7/SLC 15 (antibody) chain 1: GQGTLVTVSSASTKGPSQPVLHQPPAMSSALGTTIRLTCTLRNDHDIGVYSVYWYQQRPGHPPRFLLRYFSQSDKSQGPQVPPRFSGSKDVARNRGYLSISELQPEDEAMYYCAMGARSRCWPRGFQSKHNSVTHVFGSGTQLTVLSQPKATPSVTLFPPSSEELQANKATLVCLMNDFYPGILTVTWKADGTPITQGVEMTTPSKQSNNKYAASSYLSLTPEQWRSRRSYSCQVMHEGSTVEKTVAPAECS chain 2: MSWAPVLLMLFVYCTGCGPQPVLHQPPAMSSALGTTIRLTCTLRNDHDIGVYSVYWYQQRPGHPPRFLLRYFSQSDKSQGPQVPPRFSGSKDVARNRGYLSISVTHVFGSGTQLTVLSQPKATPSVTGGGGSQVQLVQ	nM	0.052
HC 7/SLC 8 (antibody) chain 1: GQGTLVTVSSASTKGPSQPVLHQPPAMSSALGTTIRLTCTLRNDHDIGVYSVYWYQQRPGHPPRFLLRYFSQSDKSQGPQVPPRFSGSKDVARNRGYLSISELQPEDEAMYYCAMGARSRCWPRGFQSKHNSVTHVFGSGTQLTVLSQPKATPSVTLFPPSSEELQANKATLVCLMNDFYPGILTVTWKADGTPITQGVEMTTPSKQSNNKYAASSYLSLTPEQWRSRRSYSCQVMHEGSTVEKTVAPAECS chain 2: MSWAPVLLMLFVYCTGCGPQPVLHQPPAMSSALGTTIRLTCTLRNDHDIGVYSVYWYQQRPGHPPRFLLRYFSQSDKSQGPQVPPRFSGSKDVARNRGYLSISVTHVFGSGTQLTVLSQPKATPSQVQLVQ	nM	0.095
HC 2/SLC 15 (antibody) chain 1: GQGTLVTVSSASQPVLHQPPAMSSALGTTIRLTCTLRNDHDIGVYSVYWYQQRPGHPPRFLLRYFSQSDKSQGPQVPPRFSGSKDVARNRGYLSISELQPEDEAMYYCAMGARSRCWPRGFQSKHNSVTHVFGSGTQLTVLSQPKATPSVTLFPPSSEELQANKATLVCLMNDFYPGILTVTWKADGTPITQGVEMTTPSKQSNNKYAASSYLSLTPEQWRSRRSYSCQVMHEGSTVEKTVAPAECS chain 2: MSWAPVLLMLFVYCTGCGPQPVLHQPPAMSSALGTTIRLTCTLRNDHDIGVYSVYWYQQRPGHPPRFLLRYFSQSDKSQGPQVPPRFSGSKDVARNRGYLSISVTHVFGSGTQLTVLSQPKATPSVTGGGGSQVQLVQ	nM	0.053
